# Tested on: EKVX
# METHOD: NCI tumour cell line growth inhibition, 48 h
The source made the active and inactive calls. Rule as the data show it: active = GI50 up to about 1.1 µM and inactive = higher.
Reply using exactly one outcome from yes (1) (active), no (0) (inactive)

C#C[C@]1(O)CC[C@H]2[C@@H]3CCC4=C/C(=N/NC(=O)c5cccc6c(=O)c7ccccc7[nH]c56)CCC4[C@H]3CC[C@@]21C (stereo partly drawn) ... no (0)
CC1C2=C(CCCC2=O)N(c2ccc(Cl)cc2)C2=C1C(=O)CCC2 ... no (0)
O=C(c1ccccc1)c1ccc2nc3n(c2c1)C(c1c(Cl)cccc1Cl)SC3 (stereo not drawn) ... no (0)
CSCCCNC(=O)c1csc([C@@H](CSC)NC(=O)CCNC(=O)[C@@H](NC(=O)OCC(Br)(Br)Br)C(C)O)n1 (stereo partly drawn) ... no (0)
COC(C(O)CO)C(O)C(O)C(=O)NNc1ccccc1 (stereo not drawn) ... no (0)

Challenge: Please share the test call associated with O=C(O)C(C(=O)C(=O)C(C(=O)O)c1ccc(Cl)cc1)c1ccc(Cl)cc1 (stereo not drawn) .
Response given: no (0)

Challenge: Check the results log: what was the call for COc1ccc(/C=C(/c2ccc(OC)cc2)c2c(Cl)cc(Cl)c(/C(=C\c3ccc(OC)cc3)c3ccc(OC)cc3)c2/N=N/c2ccccc2)cc1 ?
Response given: no (0)

Challenge: Could you check what this test reported for O=C(O)CCC(C(=O)O)N1C(=O)C2C3CCC(C3)C2C1=O (stereo not drawn) ?
Response given: no (0)

Challenge: For COC(=O)c1ccc(C)cc1CC1Cc2c(C)cccc2C1=O (stereo not drawn) , which call appears in the assay record?
Response given: no (0)

Challenge: Entry CCOC(=O)CCSS(=O)(=O)C(F)(F)F : call = ?
Response given: no (0)

Challenge: Short answer needed: outcome of this test for COc1ccccc1Cc1ccc(C2C=CC3(CC(=O)C=C3C)C(=O)C2)o1 (stereo not drawn) ?
Response given: no (0)

Challenge: I'd appreciate the recorded outcome for COC(=O)CC(CC(=O)C(=O)OC)C(=O)OC (stereo not drawn) from this test.
Response given: no (0)

Challenge: Kindly provide the recorded test outcome for the following compound: Cc1ccc(C(=O)O)c(/C=C2\Cc3cc(C)cc(C)c3C2=O)c1
Response given: no (0)

Challenge: Can you look up the reported call for Cc1cc2c(c(C#N)c1C)NC(=O)C(CC(=O)O)C2=O (stereo not drawn) for me?
Response given: no (0)

Challenge: GET /call?item= CC1CC(c2ccccc2)Nc2nc3ccccc3n21 (stereo not drawn) returns the recorded outcome of this test.
Response given: no (0)

Challenge: GET /call?item= COc1ccccc1/C=C1\C(=O)N(C(=O)Cc2ccccc2)N=C1C returns the recorded outcome of this test.
Response given: no (0)

Challenge: Called result for C[Si](C)(C)CN1C(=O)c2ccccc2C1(O)c1ccccc1 (stereo not drawn)
Response given: no (0)

###

Parameter GI50: see the listing below.
# System: NCI-H226
# METHOD: NCI tumour cell line growth inhibition, 48 h
The source made the active and inactive calls. No stated cut-off is given here; in the data, active = GI50 up to about 1.1 µM and inactive = higher.

Some solved cases for reference:
Cc1cc2c(cc1C)N1Cc3c(ccc(C)c3C)N(C2)C1.Cc1cc2c(cc1C)N1Cc3cc(C)c(C)cc3N(C2)C1 ... > 100 µM (inactive)
COc1ccc(C(=O)/C=C/c2cc(O)c(O)cc2F)c(OC)c1 ... 13.2 µM (inactive)
C/C(=N\Nc1nc2ccccc2[nH]1)c1cccc[n+]1[O-] ... 45.4 µM (inactive)
O=C(/C=C/c1ccccc1)CSc1nc2ccc(I)cc2c(=O)n1Cc1ccccc1 ... 12.7 µM (inactive)
O=C1C([N-]S(=O)(=O)c2ccccc2)=C([n+]2ccc(Cc3ccccc3)cc2)C(=O)c2ccccc21 ... 1.67 µM (inactive)

Challenge: What does the record list as GI50 for Cc1cc(C)c(S(=O)(=O)N(CCCCN)OCCCN)c(C)c1 ?
Response given: 16.5 µM (inactive)

Challenge: For the molecule shown here, COC(=O)C(=O)C1(CCC(C)=O)c2ccccc2-c2c(C)ccc(C)c21 (stereo unspecified) , give the reported GI50.
Response given: > 100 µM (inactive)

Challenge: Returns the measured GI50 for the input molecule. Input: CC(C)C(N)=O [ISOBUTYRAMIDE]
Response given: > 5000 µM (inactive)

###

# Tested on: HL-60
# METHOD: NCI tumour cell line growth inhibition, 48 h
Active and inactive are the calls of the source. Cut-off read from the data, not from the text of the source: active = GI50 up to about 1.1 µM and inactive = higher.
Measured GI50 accompanies every entry in the list below.

CC(C)=CCC[C@](C)(O[C@@H]1O[C@H](CO)[C@@H](O)[C@H](O)[C@H]1O)[C@H]1CC[C@]2(C)[C@@H]1[C@H](O)C[C@@H]1[C@@]3(C)CC[C@H](O)C(C)(C)[C@@H]3[C@@H](O[C@@H]3O[C@H](CO)[C@@H](O)[C@H](O)[C@H]3O)C[C@]12C [GINSENOSIDE RG1] ... > 100 µM (inactive)

Challenge: Reported GI50, compound COC(=O)[C@@H]1O[C@]12[C@@H](CO[Si](C)(C)C(C)(C)C)O[C@@H](n1cc(C)c(=O)[nH]c1=O)[C@@H]2O[Si](C)(C)C(C)(C)C : ____
Response given: 3.12 µM (inactive)

Challenge: Fill in the blank: the reported GI50 of O=C(O)c1cnc2c(ccc3ncc(C(=O)O)c(O)c32)c1O is ____.
Response given: > 100 µM (inactive)

Challenge: Which measured GI50 value corresponds to O=C(CSc1nnc(Cc2ccccc2)o1)Nc1cccc(Cl)c1 ?
Response given: > 100 µM (inactive)

Challenge: Which GI50 is reported for this compound? Cc1cc(NC(=S)SCc2ccc(F)cc2)c([N+](=O)[O-])cc1C
Response given: 16.9 µM (inactive)

Challenge: What value of GI50 has been recorded for this entry: O=[N+]([O-])c1cc(C(F)(F)F)ccc1S(=O)(=O)N[C@@H]1CCCC[C@H]1NS(=O)(=O)c1ccc(C(F)(F)F)cc1[N+](=O)[O-]
Response given: 1.39 µM (inactive)

###

Some compounds, each annotated with its measured GI50.
# Tested on: HOP-92
# METHOD: NCI tumour cell line growth inhibition, 48 h
Calls of active or inactive are those of the source. Cut-off read from the data, not from the text of the source: active = GI50 up to about 1.1 µM and inactive = higher.

Sample answers from the record:
COc1ccc(NC(=O)CC(=O)N2N=C(c3ccccc3)C(/N=N/c3ccc(S(=O)(=O)CCOS(=O)(=O)O)cc3)C2=O)cc1 (configuration not stated) ... > 100 µM (inactive)
O=P(Oc1ccccc1)(Oc1ccccc1)Oc1c[nH]c2ccccc12 ... 1.57 µM (inactive)
CN(C(=N)c1ccccc1)c1ccccc1 ... 51.5 µM (inactive)
O=C1Oc2ccccc2C(=O)/C1=C\Nc1nc(-c2ccccc2)cs1 ... 11.1 µM (inactive)
CC(C)(C)[Si](C)(C)OCC1OC(n2cnc3c(NC(=O)c4ccccc4)ncnc32)CC1O (configuration not stated) ... 23.5 µM (inactive)

Challenge: Which GI50 value belongs to CCN(CC)c1ccc2cc3ccc(N(CC)CC)cc3[o+]c2c1 ?
Response given: 0.693 µM (active)

Challenge: Query (compound): COC(=O)[C@H](Cc1ccccc1)NC(=O)c1ccc(CNC(=O)/C=C/c2ccc(OCc3ccccc3)cc2)cc1 ; field requested: GI50
Response given: 2.45 µM (inactive)

Challenge: Consider the compound CC1C[C@@H]2C(=O)NC(=O)[C@@H]2c2c1c1ccccc1n2C (some centres not stated) and give its measured GI50.
Response given: > 100 µM (inactive)

Challenge: # lookup: GI50 of CCCCCCCCCCCCCP(=O)(OC)OC
Response given: 16.9 µM (inactive)

###

Below, each entry is listed with its recorded GI50.
# Test system: DLD-1
# METHOD: NCI tumour cell line growth inhibition, 48 h
The source made the active and inactive calls. Cut-off read from the data, not from the text of the source: active = GI50 up to about 1.1 µM and inactive = higher.

Worked examples follow.
NC(=O)NNC/C(Cl)=C(\Cl)C(=O)O ... > 100 µM (inactive)
O=[N+]([O-])C1C2C=CC(C2)[C@H]1c1ccccc1Cl (some centres not stated) ... 83.6 µM (inactive)
c1ccc(CCCC2Sc3cccc4cccc(c34)S2)cc1 ... > 100 µM (inactive)
N#C/C(=C\c1ccc(O)c(O)c1)C(N)=S ... 64.6 µM (inactive)
NC(CCCC(N)P(=O)(O)O)P(=O)(O)O (configuration not stated) ... > 100 µM (inactive)
COC(=O)C(=O)C1(CCC(C)=O)c2ccccc2-c2c(C)ccc(C)c21 (configuration not stated) ... 50.1 µM (inactive)
COc1ccc2c(c1)[n+]([O-])c(-c1ccccc1)c(N)[n+]2[O-] ... 45.6 µM (inactive)
O=C1OC(CC(=O)c2ccc(Cl)cc2)C(Cl)=C1Cl (configuration not stated) ... 52.6 µM (inactive)
O=C(O)CCSC(=O)Nc1ccccc1Cl ... > 100 µM (inactive)
CCCCCCCCCCCCCC(=O)CC(=O)c1c(O)cccc1O ... 41.6 µM (inactive)

Challenge: Which GI50 value belongs to C=C=C[P+](c1ccccc1)(c1ccccc1)c1ccccc1 ?
Response given: 5.61 µM (inactive)

Challenge: // returns reported GI50 for input COc1cc(NC(C)CCCN)c2ncccc2c1 (configuration not stated) [PRIMAQUINE PHOSPHATE]
Response given: 76.6 µM (inactive)
